Method: amyloid nucleation score (Sup35N fusion, yeast selection) (log enrichment); library NNK1; higher = more nucleation; inactive = no reads after selection;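 also: zero at mode of non-aggregating sequences after 7 days selection at 30°C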
Task for the reader: assign each of the following substances its reported amyloid nucleation score.
I only need the number, thanks.

Give amyloid nucleation score for RIVEGWDTLSFLFRKGCEFF
1.2

Give amyloid nucleation score for LYIYWCSWVNGTFT
0.393

Give amyloid nucleation score for LRSSWRTSIWHTWLWPYGDW
0.287

Give amyloid nucleation score for FTLIIRDLMFSRHEFRVHAG
-0.213

Give amyloid nucleation score for LRSCMRGGRKYRDS
-0.903

Give amyloid nucleation score for NGANMLVCKRFVLVNLYGPA
6.02

Give amyloid nucleation score for HWRTCCWQEMLLMSALSRQG
-0.252

Give amyloid nucleation score for MLLSFLYLV
5.26

Give amyloid nucleation score for LVPRIRFWDYHNTELATHQK
5.13

Give amyloid nucleation score for VTHVFYAVLGGMRMGLNFPT
-0.192

Give amyloid nucleation score for MMYDGIVSR
-0.184

Give amyloid nucleation score for RDYYIVNSGLKLEYHLLI
3.77

Give amyloid nucleation score for NYCFLNQDFCD
3.61

Give amyloid nucleation score for YMQGAFFQQTPSNLWQEGHY
-0.74

Give amyloid nucleation score for NLSWRISKHMALGVRCLWCH
0.791

Give amyloid nucleation score for DLYGRLLNWNTPYKRRWKNR
-0.491

Give amyloid nucleation score for MWDGGKVNVFTFRAKRPCVG
-0.215

Give amyloid nucleation score for ETLSFGKHLPRVHAFHHVRC
-0.671

Give amyloid nucleation score for SSMMLDYCRSYCANISTKCQ
0.675

Give amyloid nucleation score for SYAFLCNGSSRGLIIAMVLT
-0.057

Give amyloid nucleation score for HFCMGWVYLPELMYRFYMCF
-0.494

Give amyloid nucleation score for SSGDGRRAP
0.335

Give amyloid nucleation score for FGQSQPCDVTRENFCKEACN
-0.028

Give amyloid nucleation score for YYISRVVVDGIRKYWGYLES
-0.866

Give amyloid nucleation score for VLGPRWECMNRTYWRRTMVV
-0.011

Give amyloid nucleation score for SKVVGGESKVQ
1.05

Give amyloid nucleation score for NTCYALIMVLYRRDRGPANM
1.55

Give amyloid nucleation score for QVYEDGRAICHLTLGRDCNL
2.22

Give amyloid nucleation score for NTMLQKVKCWKRRVDSSRQE
0.093

Give amyloid nucleation score for NNCANIGRIEFMPGHYDMCV
1.11

Give amyloid nucleation score for NNKQYLI
1.59

Give amyloid nucleation score for KAFNVFER
0.225

Give amyloid nucleation score for KAVYLRVRGTHCVNNVALWK
3.43

Give amyloid nucleation score for FNYEGYNMSCCGYRQFMEFG
5.87

Give amyloid nucleation score for VNHTKPVDILHC
0.521

Give amyloid nucleation score for ESTSYCKSDYLVRFVFEDGL
-0.294

Give amyloid nucleation score for HMVFQVKFWTNHRQVFSLPY
2.91

Give amyloid nucleation score for SRVNCYSSHSFSKYGRVGKS
-0.004

Give amyloid nucleation score for MVGRNWKTGSIVTLVMFRLE
0.041

Give amyloid nucleation score for VSASLDGPLSVRKGTSKAWD
-0.043

Give amyloid nucleation score for GREVGYVKLMDRPWPYRPAE
0.191

Give amyloid nucleation score for MFNRWDIHFIGNNNLYGICV
0.613

Give amyloid nucleation score for SIRLHS
2.65

Give amyloid nucleation score for RSFEGKRFNVGWLFASATFM
0.157

Give amyloid nucleation score for IATNRGMCLGLRVSGLDMAR
1.13

Give amyloid nucleation score for LGDTVCVRYCR
0.223

Give amyloid nucleation score for MFSLYYPFSNWFDLI
-0.001

Give amyloid nucleation score for RSFSECLMSGHTIFQFGMYM
4.26

Give amyloid nucleation score for KWQEQGVIFSNFLLHRHWDV
-1.23

Give amyloid nucleation score for LLVSGVRSRKTQRWSFRACS
0.634

Give amyloid nucleation score for IVDSHVSIATYRLEELRRTL
2.11

Give amyloid nucleation score for SAGYYPVVLCALILEAEYQD
-0.541

Give amyloid nucleation score for KNPLVIKKRF
0.204

Give amyloid nucleation score for GFLTETDNCTICIFHMFVDN
6.2

Give amyloid nucleation score for CCPWEEHGICNEWRHRGSGT
-0.199

Give amyloid nucleation score for TGCHKS
0.915

Give amyloid nucleation score for AVWSRRTCWGLRKQSGVVLT
0.036

Give amyloid nucleation score for FELICRW
0.516

Give amyloid nucleation score for WFFHLTNLSFCCNPLVVPRV
-0.004

Give amyloid nucleation score for MQTLNCSPNQAHSSIFN
0.915

Give amyloid nucleation score for VAGCNVDIDVNMSCRGDMWK
2.81

Give amyloid nucleation score for TCLADLDWSRGGGYYPHRLC
0.372

Give amyloid nucleation score for PYLVVVTHMAMASHWDLLLP
0.25

Give amyloid nucleation score for RFRFNWLNSQNLQRFVGTFK
0.433

Give amyloid nucleation score for ACHCNIFFHR
6.33

Give amyloid nucleation score for LNRVLMTIWCTPMSICTYDC
3.89

* * *

Method: amyloid nucleation score (Sup35N fusion, yeast selection) (log enrichment); library NNK3; higher = more nucleation; inactive = no reads after selection
Measured Metric: amyloid nucleation score

Look over these answered cases.
Give amyloid nucleation score for SDGVGQLDSDVHSGGGDNRQ
inactive

Give amyloid nucleation score for MVFCNGFGYGASNFGNNSAS
inactive

Give amyloid nucleation score for SLFGVNGMSAPGRRDV
0.589

Give amyloid nucleation score for YMRAIHRCCAYLVRGLGSGT
inactive

Give amyloid nucleation score for SWFGGRDYYKMHIVSG
inactive

New cases:
Give amyloid nucleation score for LQCLVSAKCNFCMYR
0.869

Give amyloid nucleation score for IRCRQNPGSHVIRYFCCRRS
inactive

Give amyloid nucleation score for SFVMGSAANL
inactive

Give amyloid nucleation score for SSFEFVE
0.698

Give amyloid nucleation score for DRHSTYCLAS
inactive

Give amyloid nucleation score for THESATSYLISGFGIGFIWC
1.49

Give amyloid nucleation score for MRYLDLYGRARNVRIRVRRT
inactive

Give amyloid nucleation score for LNSKSSLVPNMLWDMREHAI
1.04

Give amyloid nucleation score for LEQYEKLRGSPKVNRRMCNQ
inactive

Give amyloid nucleation score for AFIFGCHNGTFKYGKYTCRG
inactive

Give amyloid nucleation score for KGSHFFAIFGW
inactive

Give amyloid nucleation score for FFLYAVLLFTLLPSVLASGN
inactive

* * *

Method: amyloid nucleation score (Sup35N fusion, yeast selection) (log enrichment); library NNK3; higher = more nucleation; inactive = no reads after selection
Measured Metric: amyloid nucleation score

Look over these answered cases.
Give amyloid nucleation score for FKSCLRTC
inactive

Give amyloid nucleation score for NGRWRRFLWKNGCMELYRTG
1.52

Give amyloid nucleation score for GSWLNSYVELTCVFFGSFYM
inactive

Give amyloid nucleation score for LIDSADWRCVMVVIRLGRCR
inactive

Give amyloid nucleation score for DSKMLCCCCWPVRN
1.42

New cases:
Give amyloid nucleation score for TYPTYRVWVEEQCRLYDTNR
inactive

Give amyloid nucleation score for IDSDMDKNS
inactive

Give amyloid nucleation score for LFVASLTTCIFWA
2.4

Give amyloid nucleation score for FASVFVMN
inactive

Give amyloid nucleation score for WLIKYPGYW
inactive

Give amyloid nucleation score for SPYTVQ
inactive

Give amyloid nucleation score for LNYVIVDSLDKVVQITREYS
inactive

Give amyloid nucleation score for PINETRSEESLVGSRGM
inactive

* * *

Method: amyloid nucleation score (Sup35N fusion, yeast selection) (log enrichment); library NNK3; higher = more nucleation; inactive = no reads after selection
Measured Metric: amyloid nucleation score

Look over these answered cases.
Give amyloid nucleation score for RQYRSLRFSVLVYPSHISKG
0.544

Give amyloid nucleation score for SWFSVLLGLRTSRVIANSTY
inactive

Give amyloid nucleation score for SQSFYLFLGQRSRTY
1.33

Give amyloid nucleation score for FGTPMVNVCMPS
inactive

Give amyloid nucleation score for HSCMCKSLNASLMVDVRLPR
inactive

Give amyloid nucleation score for ECPAALLKKIVPYKKLHGRM
inactive

New cases:
Give amyloid nucleation score for IATIVCYRLDGYHVLSYAHT
inactive

Give amyloid nucleation score for SRWPGHNYISQYGGYLLIFY
2.02

Give amyloid nucleation score for LYELGQKFLVGHWQRGLKP
inactive

Give amyloid nucleation score for AWRKPCWGRVNYFLYIVGAG
2.33

Give amyloid nucleation score for ANYFTPTNCSVRLRWISDPT
inactive

Give amyloid nucleation score for RSNMHC
inactive

Give amyloid nucleation score for IVSTSYNWDDACYDRTLQGG
inactive

Give amyloid nucleation score for TIASVKLEFALPPSHLPLGV
inactive

Give amyloid nucleation score for WGRGNAAMYGVFRSGNLLVI
inactive

* * *

Method: amyloid nucleation score (Sup35N fusion, yeast selection) (log enrichment); library NNK2; higher = more nucleation; inactive = no reads after selection
Range-based classes on measured amyloid nucleation score: low class (below -0.06), middle class (-0.06 to below 0.6), high class (0.6 or more)

Determine which band this substance sits in: AMRFLALAWWTPGFSIGELM
high class

Determine which band this substance sits in: RVPSSHF
high class

Determine which band this substance sits in: RCCFAARMYYGHTLASAVIR
high class

Determine which band this substance sits in: TLVLFGTLISMLQL
high class

Determine which band this substance sits in: LLPWGVTMVERLFIPIRCSD
middle class

Determine which band this substance sits in: IIHTWLWTHRSIR
low class

Determine which band this substance sits in: PQLHSLCT
low class

Determine which band this substance sits in: DCMTMINLICNGMPAICRMT
middle class

Determine which band this substance sits in: NLVTYDLE
high class

Determine which band this substance sits in: SRPDLHHAKALYFNDLRRE
middle class

Determine which band this substance sits in: SVFAKGISAVLLGACLRIAA
high class

Determine which band this substance sits in: KDLPFGTYGNGGAGSRTMRH
middle class

Determine which band this substance sits in: PAWATTLLDTSTARLYNMLA
middle class

Determine which band this substance sits in: RFMWLTLSSFQGLAEGLCTF
low class

Determine which band this substance sits in: LRVVIHPVRNAGCLGKYGAN
low class

Determine which band this substance sits in: FSSFVNREKMFIHFSNVVYF
high class

Determine which band this substance sits in: QYVDWLLYGLRDCYWYRRVY
middle class

Determine which band this substance sits in: TCLRSIVVVFLALGLDSFFW
low class

Determine which band this substance sits in: SSTFCS
middle class

Determine which band this substance sits in: VWILSLAWLLPGYTCPFGPK
high class

Determine which band this substance sits in: LHRKWFGYGCTCSWIGWEEW
middle class

Determine which band this substance sits in: YSIYELPTHYLKCLRSYKSK
low class

Determine which band this substance sits in: DSGNDLCDNYPVCWVKFCYC
high class

Determine which band this substance sits in: GTRDHGELGLLFTTTLLFVE
high class

Determine which band this substance sits in: VQDYKSVRYVGNSRIRVGGS
low class

Determine which band this substance sits in: KVIWIRCLFLYMCWAAHG
low class

Determine which band this substance sits in: NRACFGYEDKLRAMLHLYRS
middle class

Determine which band this substance sits in: ERVDVI
low class

Determine which band this substance sits in: YSTRRLGHLMC
low class

Determine which band this substance sits in: RYLNWRVCSNRLPGSEGLWA
middle class

Determine which band this substance sits in: ILWNYIYDKSFGITPDGFV
low class

Determine which band this substance sits in: LSINSFTKHQ
middle class

Determine which band this substance sits in: LGSVVSTPFCYSMFRTFKKH
middle class

Determine which band this substance sits in: PLVLKCRCLI
low class

Determine which band this substance sits in: YFLGMVPSFSLWYETSQSQC
low class

Determine which band this substance sits in: LSYTSDSRPAGF
low class

Determine which band this substance sits in: VYQMCFMAILVIRIVR
middle class

Determine which band this substance sits in: ACDSAIIGWNKIT
middle class

Determine which band this substance sits in: RFRRLSIIVILYTASRDLWR
middle class

Determine which band this substance sits in: YYFMVL
high class

Determine which band this substance sits in: VDWCWGLWT
high class

Determine which band this substance sits in: MEVNLKVKSLCQWGT
high class

Determine which band this substance sits in: LPLLSWDPRNTSP
low class

Determine which band this substance sits in: AGELGLNIYVLSIYK
high class

Determine which band this substance sits in: IYRTYYGMNACLINLCMFDN
high class

Determine which band this substance sits in: LVNMGSGPALYLYPLSIMVK
low class

Determine which band this substance sits in: QVFFFLITSRVRSVRFSQEF
high class

Determine which band this substance sits in: NFSSWSER
low class

Determine which band this substance sits in: STRLEVLKLERKIMSSKLFL
high class

Determine which band this substance sits in: GSCSKCNWCINKTAQGFVLS
low class

Determine which band this substance sits in: DSTVRPMRGGECNAGVAGKE
high class

Determine which band this substance sits in: RCGFNLFTS
low class

Determine which band this substance sits in: RTIQMVTSQSLPCFC
high class

Determine which band this substance sits in: HSFLPRGHVADYNKLPVWSV
low class

Determine which band this substance sits in: LMSCRILRSAKRGHSNVKRF
middle class

Determine which band this substance sits in: VSNREMYVNR
middle class

Determine which band this substance sits in: VRFVINSWLTCVYERNIKLL
middle class

Determine which band this substance sits in: YFGTLSLLKHEVA
low class

Determine which band this substance sits in: KSGGDDLESSWRCWASMGLM
middle class

Determine which band this substance sits in: MLDVCGVLHLPRRSLIAFVA
high class

Determine which band this substance sits in: LLKTSASCIMHGEKQKWMLA
high class

Determine which band this substance sits in: FSMMFIL
high class

Determine which band this substance sits in: VGSDWKSVNIFAVDEPGSTY
low class

Determine which band this substance sits in: VEHEFVQILT
low class

Determine which band this substance sits in: LVQYMTMRCVFSNIGGMTSG
middle class
